Tested on: ATP;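 note: ATP exposure 15 min at 22 °C before imaging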
assay-protocol: switch fluorescence ratio, 500 uM ATP over buffer (Cy3 cluster intensity, sum of 5 cycles each) (fold (ratio)); higher = stronger signal-on switching upon ATP binding; sequences stand for … in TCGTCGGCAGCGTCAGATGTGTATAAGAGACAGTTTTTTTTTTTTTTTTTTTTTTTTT…TC
condition-description: aptamer strand: ATP DNA aptamer (quencher-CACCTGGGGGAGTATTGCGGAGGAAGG + anchor), 100 nM annealed; ATP concentration: 500 uM
measurement-name: switch fluorescence ratio
In your answer, state the number alone without any accompanying words.

Tell me measured switch fluorescence ratio for GTAAAAGGGT please.
1

Provide one value: measured switch fluorescence ratio of TGCAATTTTT
1.04

New cases:
Check the records and state switch fluorescence ratio for TTTTGATTAA
1.02

----------
Test system: ATP;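 note: ATP exposure 15 min at 22 °C before imaging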
assay-protocol: switch fluorescence ratio, 500 uM ATP over buffer (Cy3 cluster intensity, sum of 5 cycles each) (fold (ratio)); higher = stronger signal-on switching upon ATP binding; sequences stand for … in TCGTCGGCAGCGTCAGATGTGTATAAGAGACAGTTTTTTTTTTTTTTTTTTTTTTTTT…TC
condition-description: aptamer strand: ATP DNA aptamer (quencher-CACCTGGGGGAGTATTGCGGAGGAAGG + anchor), 100 nM annealed; ATP concentration: 500 uM
Give label 1 when the value for switch fluorescence ratio is at least 1. Give label 0 when it is less.

Entry GCTAAAACCG : is its switch fluorescence ratio no less than 1?
label 1

Evaluate AGGAAGTTAG : switch fluorescence ratio at minimum 1?
label 0

Say whether GTTTTACTGA shows switch fluorescence ratio of 1 or more.
label 1

API: above_or_equal(metric=switch fluorescence ratio, cutoff=1) for item TGAACTTGAC
label 1

Test whether the sequence CACGAATGCT records switch fluorescence ratio of 1 or higher.
label 1

Evaluate TTAAAAGCTT : switch fluorescence ratio at minimum 1?
label 1

For this sequence, is measured switch fluorescence ratio 1 or higher? CATACAGATC
label 1

Given the entry CGTGAAAGCG , answer whether its switch fluorescence ratio meets or surpasses 1.
label 0

Confirm if switch fluorescence ratio reported for the sequence TCCAAGGGGT is 1 or above.
label 1

Can CCAGGGTTGT be said to have switch fluorescence ratio at or above 1?
label 1

New cases:
Form field: switch fluorescence ratio at least 1? Entry: TTTGCCTGAC
label 1

// inclusive: switch fluorescence ratio at least 1? input: TTTAACGGGA
label 1

Dear colleague, could you confirm whether GGTCCATGCT has switch fluorescence ratio at or above 1?
label 0

Does the reported switch fluorescence ratio for AAACGAAATT fall at or above the 1 mark?
label 1

Is the recorded value of switch fluorescence ratio equal to or greater than 1 for this sequence? GGCAATATGT
label 1

Could you tell me if the measured switch fluorescence ratio of GTTGGTGACG reaches 1 or more?
label 1

Evaluate TCAAAGAAC : switch fluorescence ratio at minimum 1?
label 1

----------
System: ATP;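 note: ATP exposure 15 min at 22 °C before imaging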
assay-protocol: switch fluorescence ratio, 500 uM ATP over buffer (Cy3 cluster intensity, sum of 5 cycles each) (fold (ratio)); higher = stronger signal-on switching upon ATP binding; sequences stand for … in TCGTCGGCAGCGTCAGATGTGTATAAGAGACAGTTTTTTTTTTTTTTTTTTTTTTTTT…TC
condition-description: aptamer strand: ATP DNA aptamer (quencher-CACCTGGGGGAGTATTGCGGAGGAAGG + anchor), 100 nM annealed; ATP concentration: 500 uM
Parameter switch fluorescence ratio: see the listing below.
Answer with the value's number alone.

State its switch fluorescence ratio: GTGTTCTTGC
0.985

Recall and state the measured switch fluorescence ratio for GAGTGATGTT .
0.979

Provide switch fluorescence ratio value for the following sequence: GGAATGAGTA
0.997

Read the entry TCATGATAGT and write its reported switch fluorescence ratio.
0.983

Provide measured switch fluorescence ratio value, entry: TTAAAAAGGA
0.986

Next:
For the sequence GTTAAGTTTT , report switch fluorescence ratio.
0.985

Provide switch fluorescence ratio value for the following sequence: CGGGGCGTGT
0.988

Identify measured switch fluorescence ratio corresponding to CGGGTGAAGG
1.06

Give me measured switch fluorescence ratio, please, for this sequence: CGTTAATTAC
1.38

Using the record for TTATTGCTCG , state its measured switch fluorescence ratio.
0.989

Using known records, supply switch fluorescence ratio for GGAGATAGTT
0.981

# return recorded switch fluorescence ratio for input TAAGAGGAGA
0.987

Look up and state reported switch fluorescence ratio for GGGCCTCGGG
0.953

Please supply the value of reported switch fluorescence ratio for the item GACTAGGGGT
1
